Sourced from the supplement of paper PMC10065799

Target: Jak2 (UniProt O60674)
Sequence (O60674 whole entry, looked up): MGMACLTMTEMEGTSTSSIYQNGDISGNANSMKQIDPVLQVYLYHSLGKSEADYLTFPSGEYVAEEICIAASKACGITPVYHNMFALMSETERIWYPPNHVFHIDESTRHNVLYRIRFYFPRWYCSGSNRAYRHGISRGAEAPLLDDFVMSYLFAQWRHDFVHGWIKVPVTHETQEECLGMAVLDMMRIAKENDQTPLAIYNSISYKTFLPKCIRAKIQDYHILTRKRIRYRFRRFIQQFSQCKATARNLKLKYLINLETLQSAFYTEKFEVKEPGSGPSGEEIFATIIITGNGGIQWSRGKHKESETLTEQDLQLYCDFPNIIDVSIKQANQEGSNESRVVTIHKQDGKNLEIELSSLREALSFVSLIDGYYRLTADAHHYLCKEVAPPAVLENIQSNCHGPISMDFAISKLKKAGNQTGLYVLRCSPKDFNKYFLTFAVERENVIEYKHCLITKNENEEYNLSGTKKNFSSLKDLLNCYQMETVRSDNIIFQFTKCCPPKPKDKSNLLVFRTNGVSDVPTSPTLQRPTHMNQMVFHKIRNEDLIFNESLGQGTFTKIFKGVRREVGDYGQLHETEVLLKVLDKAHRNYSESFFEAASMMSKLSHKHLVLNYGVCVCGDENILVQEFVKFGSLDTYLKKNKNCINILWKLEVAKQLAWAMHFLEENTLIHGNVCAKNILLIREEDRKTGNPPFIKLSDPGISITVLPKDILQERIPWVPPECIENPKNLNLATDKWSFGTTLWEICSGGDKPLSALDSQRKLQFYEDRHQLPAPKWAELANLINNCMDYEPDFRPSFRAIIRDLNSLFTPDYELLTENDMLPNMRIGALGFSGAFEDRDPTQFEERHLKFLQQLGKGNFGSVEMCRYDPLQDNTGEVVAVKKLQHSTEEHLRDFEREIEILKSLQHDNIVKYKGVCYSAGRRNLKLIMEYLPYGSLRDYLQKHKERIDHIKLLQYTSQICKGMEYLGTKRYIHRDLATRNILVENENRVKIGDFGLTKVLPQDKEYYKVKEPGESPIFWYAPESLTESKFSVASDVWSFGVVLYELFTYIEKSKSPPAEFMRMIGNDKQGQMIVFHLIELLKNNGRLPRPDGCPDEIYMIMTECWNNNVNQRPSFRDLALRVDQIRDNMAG
Assay: phosphorylation enrichment, bacterial display (enrichment ratio); higher = better substrate or ligand; peptides without Tyr show the background;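 note: 11-residue human phosphosite peptides and single-mutation variants displayed on the E. coli surface, counted by deep sequencing, each peptide's frequency after selection divided by its frequency in the unselected input library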;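 note: frequency after pTyr selection over input frequency; kinase dosed for 20-30% of maximal phosphorylation in three min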
Assign class by phosphorylation enrichment: not lower than 0.9 means yes; lower than 0.9 means no.

Some solved entries appear below for comparison.
QTEAQYRFIYM [PTPN11_Y511]	yes
GFRVCYTPDSR [PTPRF_Y451_Y450C_YF]	yes

Query block: Hello, I need to know if PLYSKYWPNHI [GREB1L_Y1560_R1558S] has measured phosphorylation enrichment not below 0.9. Thanks!
Result block: yes

Query block: Hello, I need to know if GRQVIYTENER [GPR143_Y231_G229V] has measured phosphorylation enrichment not below 0.9. Thanks!
Result block: no

Query block: Hello, I need to know if SECCKYKTDNP [OSMR_Y689_I691T] has measured phosphorylation enrichment not below 0.9. Thanks!
Result block: no

Query block: Hello, I need to know if VDTFWYKFLKP [EPM2A_Y86_R91P] has measured phosphorylation enrichment not below 0.9. Thanks!
Result block: yes
